# Tested on: Saccharomyces cerevisiae;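 further: PSI is a weighted mean of sequencing reads over stability bins, variants kept only with over 10 reads, mCherry proximal and sfGFP distal, peptide attached via GGGS linker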
# Run Description: protein stability index of tFT-peptide fusion (C-terminal peptide) (PSI (0-1 scale)); higher = more stable (slower turnover)
# Conditions: genetic background: wild type; temperature: 37 C

- Record Sequence: "LICRFLFFVCVG"
  Tested System: "Saccharomyces cerevisiae"
  protein stability index: 0.441
- Record Sequence: "GRGFVLSVAVVA"
  Tested System: "Saccharomyces cerevisiae"
  protein stability index: 0.467
- Record Sequence: "VGDIRSFALWYA"
  Tested System: "Saccharomyces cerevisiae"
  protein stability index: 0.707
- Record Sequence: "WFFRCLFLLSLF"
  Tested System: "Saccharomyces cerevisiae"
  protein stability index: 0.23
- Record Sequence: "VSPPPLSPPLSR"
  Tested System: "Saccharomyces cerevisiae"
  protein stability index: 0.688
- Record Sequence: "GWWCGIGVAVSV"
  Tested System: "Saccharomyces cerevisiae"
  protein stability index: 0.477
- Record Sequence: "AGAFRIVWWALR"
  Tested System: "Saccharomyces cerevisiae"
  protein stability index: 0.68
- Record Sequence: "VRWLVFFLFLFG"
  Tested System: "Saccharomyces cerevisiae"
  protein stability index: 0.497
- Record Sequence: "WSSWFLWVIFRL"
  Tested System: "Saccharomyces cerevisiae"
  protein stability index: 0.288
- Record Sequence: "YFFVCYFSLLVF"
  Tested System: "Saccharomyces cerevisiae"
  protein stability index: 0.168
- Record Sequence: "VACTCILVALVV"
  Tested System: "Saccharomyces cerevisiae"
  protein stability index: 0.165
- Record Sequence: "INKKKKMIITKI"
  Tested System: "Saccharomyces cerevisiae"
  protein stability index: 0.479
- Record Sequence: "YFYIRLGIAYMM"
  Tested System: "Saccharomyces cerevisiae"
  protein stability index: 0.264
- Record Sequence: "VFLRRFGVPWVF"
  Tested System: "Saccharomyces cerevisiae"
  protein stability index: 0.429
- Record Sequence: "RFICMMYLVYLC"
  Tested System: "Saccharomyces cerevisiae"
  protein stability index: 0.073
- Record Sequence: "LFFVFCLFFIYF"
  Tested System: "Saccharomyces cerevisiae"
  protein stability index: 0.264
- Record Sequence: "VLLCGCVWLWWG"
  Tested System: "Saccharomyces cerevisiae"
  protein stability index: 0.501
- Record Sequence: "IRSRGLLIRWLS"
  Tested System: "Saccharomyces cerevisiae"
  protein stability index: 0.148
- Record Sequence: "ACSRKPIWVTWL"
  Tested System: "Saccharomyces cerevisiae"
  protein stability index: 0.51

src = the supplement of paper PMC10724198
